Each recorded value in this set is attributed to ChEMBL document CHEMBL1133637.

This section presents compounds with their documented IC95 values.
Experimental system: Human immunodeficiency virus type 1 protease (Human immunodeficiency virus 1) (UniProt Q72874)
Test name: Concentration required for 95% inhibition of Protease
Value expressed in nM; do not type the unit.

Input: Identify IC95 associated with the compound CCOC(=O)c1cnc2oc(CN3CCN(CC(O)CC(Cc4ccccc4)C(=O)NC4c5ccccc5CC4O)C(C(=O)NC(C)(C)C)C3)cc2c1 (stereo not drawn)
Output: 25

Input: Identify IC95 associated with the compound CC(C)(C)NC(=O)C1CN(Cc2cc3cc(CO)cnc3o2)CCN1CC(O)CC(Cc1ccccc1)C(=O)NC1c2ccccc2CC1O (stereo not drawn)
Output: 62.5

Input: Identify IC95 associated with the compound Cc1nn(C)c2ncc(CN3CCN(C[C@@H](O)C[C@@H](Cc4ccccc4)C(=O)NC4c5ccccc5C[C@H]4O)[C@H](C(=O)NC(C)(C)C)C3)cc12 (stereo partly drawn)
Output: 6
